- TARGET ENTITY: T1, rat NPRA (rat, UniProt P18910 29-1057)
- T1 sequence (looked up): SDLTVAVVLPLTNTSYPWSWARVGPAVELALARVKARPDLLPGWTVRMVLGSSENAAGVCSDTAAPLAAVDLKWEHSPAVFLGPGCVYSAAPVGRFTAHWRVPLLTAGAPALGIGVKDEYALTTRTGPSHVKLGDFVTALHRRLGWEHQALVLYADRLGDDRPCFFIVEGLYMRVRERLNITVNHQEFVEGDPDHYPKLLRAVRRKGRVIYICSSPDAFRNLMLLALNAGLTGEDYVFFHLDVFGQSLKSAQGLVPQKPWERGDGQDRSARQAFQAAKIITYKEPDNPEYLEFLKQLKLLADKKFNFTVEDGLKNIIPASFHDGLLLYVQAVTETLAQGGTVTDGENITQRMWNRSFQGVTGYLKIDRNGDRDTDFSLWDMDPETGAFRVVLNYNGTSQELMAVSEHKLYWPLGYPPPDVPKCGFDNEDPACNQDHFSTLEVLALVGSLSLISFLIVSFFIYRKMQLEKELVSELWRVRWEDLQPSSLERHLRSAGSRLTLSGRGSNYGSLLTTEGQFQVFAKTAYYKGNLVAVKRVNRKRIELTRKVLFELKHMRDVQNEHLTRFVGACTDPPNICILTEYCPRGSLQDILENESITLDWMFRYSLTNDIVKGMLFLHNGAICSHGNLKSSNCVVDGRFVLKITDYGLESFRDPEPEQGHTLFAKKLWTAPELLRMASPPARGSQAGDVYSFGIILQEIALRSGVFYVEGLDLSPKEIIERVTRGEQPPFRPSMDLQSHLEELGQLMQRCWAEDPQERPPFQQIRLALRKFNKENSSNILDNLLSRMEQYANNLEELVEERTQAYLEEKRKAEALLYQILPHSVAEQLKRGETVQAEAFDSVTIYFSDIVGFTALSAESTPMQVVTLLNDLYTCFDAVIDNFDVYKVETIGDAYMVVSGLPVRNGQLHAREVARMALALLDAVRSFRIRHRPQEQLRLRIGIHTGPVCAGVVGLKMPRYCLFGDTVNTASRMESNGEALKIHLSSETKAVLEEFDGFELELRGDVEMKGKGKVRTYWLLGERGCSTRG
- TEST: cell-based or functional assay
Numbered stars: 1 amine (or outer) side, 2 acyl side, 3 side chain; on linkers, the order of the positions; unused ones are H or OH. Bridge positions count the residues as written; N and C are the ends. Square brackets hold non-standard residues; d marks the D form. Ends that are not written are not given here. * marks the point of attachment. thioacetal = thioacetal linkage between two cysteines (intrachain bond at the bracketed Cys); C20 diacid = O=C(O)CCCCCCCCCCCCCCCCCCC(=O)*; γGlu = O=C(O)[C@H](CCC(=O)[*:2])N[*:1]; 4Pal = N[C@@H](Cc1ccncc1)C(=O)O; βAla = NCCC(=O)O
Mark f for cGMP Assay (EC50, pM) w/BSA values under 500000 pM, and t for everything at or above.

| BINDER | CATEGORY LABEL |
| --- | --- |
| XEKEKEKGSXRRSSCFGGRIDRIGHYSGLGCPSFRHGGPSSGAPPPS (HOOC-(CH2)18-CO-(γGlu)-EKEKEKGS-4Pal-RRSS[CFGGRIDRIGHYSGLGC]PSFRHGGPSSGAPPPS-NH2; disulfide linkage between the bracketed Cys) [Example 38] | f |
| {C20 diacid}-[γGlu]EKEKEKGEK[βAla]RSSCFGGRIDRIGHYSGLGCPSFRHGGKSSGAPPPS-NH2 (bridge 15-31 via thioacetal) [Example 74] | t |
| XEKEKEKGSXRRSSCFGGRIDRIGHQSGLGCPSFRHGGPSSGAPPPS (HOOC-(CH2)18-CO-(γGlu)-EKEKEKGS-4Pal-RRSS[CFGGRIDRIGHQSGLGC]PSFRHGGPSSGAPPPS-NH2; disulfide linkage between the bracketed Cys) [Example 1] | f |
| SXRRSSCFGGRIDRIGHYSGLGCPSFRHGGKSSGAPPPS (HOOC-(CH2)18-CO-(γGlu)-EKEKEKG-(AEEA)8-S-4Pal-RRSS[CFGGRIDRIGHYSGLGC]PSFRHGGKSSGAPPPS-NH2; thioacetal linkage between the bracketed Cys) [Example 91] | t |
| {C20 diacid}-[γGlu]EKEKEKGEK[βAla]RSSCFGGRIDRIGHYSGLGCPSLRHGGPSSGAPPPS-NH2 (bridge 15-31 via thioacetal) [Example 63] | t |
| SXRRSSCFGGRIDRIGHQSGLGCPSFRHGGPPSXKPPPK (HOOC-(CH2)18-CO-(γGlu)-EKEKEKG-PEG24-S-4Pal-RRSS[CFGGRIDRIGHQSGLGC]PSFRHGGPPS-Aib-KPPPK-NH2; thioacetal linkage between the bracketed Cys) [Example 84] | t |
| {C20 diacid}-[γGlu]EKEKEKGS[4Pal]RRSSCFGGRIDRIGHQSGLGCPSFRHRITAREDKQGEA-NH2 (disulfide 15-31) [Example 26] | f |
| XEKEKEKGSXRRSSCFGGRIDRIGHQSGLGCPSFRHGPSSGAPPPS (HOOC-(CH2)18-CO-(γGlu)-EKEKEKGS-4Pal-RRSS[CFGGRIDRIGHQSGLGC]PSFRH-GPSSGAPPPS-NH2; disulfide linkage between the bracketed Cys) [Example 37] | f |
| EK[βAla]RSSCFGKRIDRIGHQSGLGCPSFRHGGKSSGAPPPS-NH2 (bridge 7-23 via thioacetal; not fully specified (N-terminus)) [Example 90] | t |
| SXRRSSCFGGRIDRIGHQSGLGCPSFRHGGPSSGAPPPS (HOOC-(CH2)18-CO-(γGlu)-EKEKEKG-PEG24-S-4Pal-RRSS[CFGGRIDRIGHQSGLGC]PSFRHGGPSSGAPPPS-NH2; thioacetal linkage between the bracketed Cys) [Example 61] | f |
